molecular target: BRAF V600E (Homo sapiens, UniProt P15056, V600E); assay: HiBiT cellular BRAF^V600E degradation assay; format: cell-based; conditions: A375.10 cells, 24 h; concentration at which 50% of total cellular BRAF^V600E is degraded
Sequence (P15056 whole entry V600E): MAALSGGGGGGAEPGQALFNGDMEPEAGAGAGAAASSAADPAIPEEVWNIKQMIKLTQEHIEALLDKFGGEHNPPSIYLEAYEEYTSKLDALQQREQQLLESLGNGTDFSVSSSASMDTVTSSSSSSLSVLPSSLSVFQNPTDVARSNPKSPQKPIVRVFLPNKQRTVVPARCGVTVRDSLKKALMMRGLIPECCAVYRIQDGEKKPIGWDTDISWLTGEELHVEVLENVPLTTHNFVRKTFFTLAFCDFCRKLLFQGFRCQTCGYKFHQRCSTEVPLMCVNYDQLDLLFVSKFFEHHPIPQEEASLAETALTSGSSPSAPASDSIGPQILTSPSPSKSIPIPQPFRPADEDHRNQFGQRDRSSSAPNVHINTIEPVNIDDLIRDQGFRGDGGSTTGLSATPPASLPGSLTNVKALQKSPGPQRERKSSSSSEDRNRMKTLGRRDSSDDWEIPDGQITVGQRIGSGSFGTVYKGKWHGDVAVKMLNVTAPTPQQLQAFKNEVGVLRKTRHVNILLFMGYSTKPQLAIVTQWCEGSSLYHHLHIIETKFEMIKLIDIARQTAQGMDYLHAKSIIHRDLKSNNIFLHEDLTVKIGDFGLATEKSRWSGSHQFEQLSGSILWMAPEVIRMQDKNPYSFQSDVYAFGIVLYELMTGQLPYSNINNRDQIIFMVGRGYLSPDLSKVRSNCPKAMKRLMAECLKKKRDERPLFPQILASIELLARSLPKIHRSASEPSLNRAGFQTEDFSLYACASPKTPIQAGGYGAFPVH
measure: DC50 (nM)

CCN(C)S(=O)(=O)Nc1ccc(F)c(Oc2ccc3ncn(C4CCC5(CC4)CCN(C(=O)CN4CCC(c6ccc7c(N8CCC(=O)NC8=O)nn(C)c7c6)CC4)CC5)c(=O)c3c2)c1C#N [Example 155]
23.2

(a) CCN(C)S(=O)(=O)Nc1ccc(F)c(Oc2ccc3ncn([C@H]4COC5(CCN(C(=O)CN6CCN(c7cc8c(cc7F)c(N7CCC(=O)NC7=O)nn8C)CC6)CC5)C4)c(=O)c3c2)c1C#N [Example 164]
(b) CCN(C)S(=O)(=O)Nc1ccc(F)c(Oc2ccc3ncn([C@@H]4CCC5(CCN(C(=O)CN6CCC(c7ccc(NC8CCC(=O)NC8=O)cc7F)CC6)CC5)C4)c(=O)c3c2)c1C#N (single isomer, unassigned) [Example 41]
// compare measured DC50 between a and b ; output the lower one Please identify the chosen entry by its label.
b
(b: 16.1 nM, a: 26.6 nM)

(A) CO[C@@H]1CCN(S(=O)(=O)Nc2ccc(F)c(Oc3ccc4ncn([C@H]5COC6(CCN(C(=O)CC7(O)CCN(c8cc9c(cc8F)c(N8CCC(=O)NC8=O)nn9C)CC7)CC6)C5)c(=O)c4c3)c2C#N)C1 [Example 177]
(B) CCN(C)S(=O)(=O)Nc1ccc(F)c(Oc2ccc3ncn(CCC4(F)CCN(C(=O)CN5CCC(c6ccc(NC7CCC(=O)NC7=O)cc6F)CC5)CC4)c(=O)c3c2)c1C#N (stereo not shown) [Example 13]
Could you check which of A and B has a smaller value for DC50? Output the label that corresponds to your choice.
A
(A: 18 nM, B: 26.2 nM)

----------
test system: phospho-ERK (T202/Y204); assay: HTRF phospho-ERK (T202/Y204) inhibition assay in A375 cells; type: cell-based; settings: Homo sapiens, A-375, 24 hrs, mean of at least n = 3, read-out: pERK IC50
pIC50: −log10 of the molar value.
measure: pIC50

CCN(C)S(=O)(=O)Nc1ccc(F)c(Oc2ccc3ncn([C@H]4COC5(CCN(C(=O)CC6(O)CCN(c7cc8c(cc7F)c(N7CCC(=O)NC7=O)nn8C)CC6)CC5)C4)c(=O)c3c2)c1C#N
8.49

(1) COC(=O)N[C@@H](C)CNc1nccc(-c2cn(C(C)C)nc2-c2cc(Cl)cc(NS(C)(=O)=O)c2F)n1 [encorafenib, reference compound]
(2) CCN(C)S(=O)(=O)Nc1ccc(F)c(Oc2ccc3ncn([C@H]4COC5(CCN(C(=O)CC6(O)CCN(c7cc8c(cc7F)c(N7CCC(=O)N(C)C7=O)nn8C)CC6)CC5)C4)c(=O)c3c2)c1C#N [Compound 157^NMe, reference compound]
Among 1 and 2 , which shows a numerically higher pIC50 result? I would appreciate it if you answered with the label of your choice.
1

----------
target: BRAF V600E (Homo sapiens, UniProt P15056, V600E); experiment: HiBiT cellular BRAF^V600E degradation assay; format: cell-based; conditions: A375.10 cells, 24 h; concentration at which 50% of total cellular BRAF^V600E is degraded
measure: DC50 (nM)

Some molecules with recorded DC50:
CCN(C)S(=O)(=O)Nc1ccc(F)c(Oc2ccc3ncn([C@H]4CCC5(CCN(C(=O)CN6CCC(c7ccc(NC8CCC(=O)NC8=O)cc7F)CC6)CC5)C4)c(=O)c3c2Cl)c1C#N (single isomer, unassigned) [Example 79]
20.1
N#Cc1c(NS(=O)(=O)N2CCCC2)ccc(F)c1Oc1ccc2ncn(-c3cnc(N4CCN(C(=O)CN5CCC(c6ccc(N[C@H]7CCC(=O)NC7=O)cc6F)CC5)CC4)nc3)c(=O)c2c1 [Example 107]
12.9

(P) CCN(C)S(=O)(=O)Nc1ccc(F)c(Oc2ccc3ncn(C4COC5(CCN(C(=O)CN6CCC(c7ccc(NC8CCC(=O)NC8=O)cc7F)CC6)CC5)C4)c(=O)c3c2Br)c1C#N (centres unmarked) [Example 68]
(Q) CCN(C)S(=O)(=O)Nc1ccc(F)c(Oc2ccc3ncn([C@H]4COC5(CCN(C(=O)CC6(O)CCN(c7ccc8c(C9CCC(=O)NC9=O)nn(C)c8c7)CC6)CC5)C4)c(=O)c3c2)c1C#N (some centres unmarked) [Example 152]
(R) CCN(C)S(=O)(=O)Nc1ccc(F)c(Oc2ccc3ncn(CCCC4CCN(CC(=O)N5CCC(c6ccc(NC7CCC(=O)NC7=O)cc6)CC5)CC4)c(=O)c3c2)c1C#N (centres unmarked) [Example 7]
Falling order of DC50, please. Answer by listing the labels in the order asked for.
R, Q, P
